Measured pIC50, listed per entry.
- system.name: Signal transducer and activator of transcription 3 (Homo sapiens, UniProt P40763)
- Sequence (P40763 whole entry): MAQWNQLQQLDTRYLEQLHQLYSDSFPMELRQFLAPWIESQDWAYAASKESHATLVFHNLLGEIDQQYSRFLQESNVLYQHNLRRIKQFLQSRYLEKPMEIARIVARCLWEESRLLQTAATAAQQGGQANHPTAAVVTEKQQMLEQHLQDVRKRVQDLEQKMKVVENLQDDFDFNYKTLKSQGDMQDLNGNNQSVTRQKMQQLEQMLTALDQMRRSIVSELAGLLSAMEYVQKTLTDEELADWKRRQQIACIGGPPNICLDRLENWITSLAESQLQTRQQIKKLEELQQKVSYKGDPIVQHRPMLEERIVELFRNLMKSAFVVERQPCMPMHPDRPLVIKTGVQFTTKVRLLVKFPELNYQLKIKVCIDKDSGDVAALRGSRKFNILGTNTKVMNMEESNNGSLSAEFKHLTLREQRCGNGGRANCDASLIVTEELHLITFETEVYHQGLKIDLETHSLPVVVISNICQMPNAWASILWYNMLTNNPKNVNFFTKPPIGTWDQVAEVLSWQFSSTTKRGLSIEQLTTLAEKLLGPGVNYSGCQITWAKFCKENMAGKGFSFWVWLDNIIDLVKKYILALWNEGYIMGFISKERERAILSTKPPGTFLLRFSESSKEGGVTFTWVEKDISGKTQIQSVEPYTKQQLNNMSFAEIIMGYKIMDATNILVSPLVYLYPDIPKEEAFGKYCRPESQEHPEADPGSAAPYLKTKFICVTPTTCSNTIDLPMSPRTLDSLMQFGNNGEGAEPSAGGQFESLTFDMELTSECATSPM
- method: Inhibition of IL-6-induced STAT3 pathway in human HepG2 cells by luciferase reporter gene assay
pIC50: −log10 of the molar value.
property.measured: pIC50

{"columns": ["compound.string", "property.measured", "quantitative.readout"],
 "data": [
  ["NS(=O)(=O)c1ccc(NCc2cc(Cl)ccc2OCc2ccccc2)cc1", "pIC50", 4.61],
  ["OCCNCc1cc(Br)ccc1OCc1ccc(Cl)cc1", "pIC50", 4.22],
  ["Oc1ccc(NCc2cc(Cl)ccc2OCc2ccc(Cl)cc2)cc1", "pIC50", 4.57]
]}
